For each record, write down the corresponding GI50.
test system: RXF 393; assay: NCI tumour cell line growth inhibition, 48 h
The source made the active and inactive calls. No stated cut-off is given here; in the data, active = GI50 up to about 1.1 µM and inactive = higher.

Look over these answered cases.
molecule="O=C1c2ccccc2N2OC3C4CCC(C4)C3C12c1ccccc1 (stereo not given)" reading="16.5 µM (inactive)"
molecule=Cc1n[nH]c(=O)n1C1CCCC1 reading="> 100 µM (inactive)"
molecule="COC1=C2CC(C)CC(OC)[C@@H](OC(=O)CCN)[C@H](C)/C=C(\\C)C(OC(N)=O)C(OC)/C=C\\C=C(/C)C(=O)NC(=CC1=O)C2=O (stereo not given in full)" reading="1.56 µM (inactive)"
molecule=CC(C)CCS(=O)(=O)OCCCCOS(=O)(=O)CCC(C)C reading="> 100 µM (inactive)"

Turning now to a further molecule:
[Q] Request the reported GI50 associated with c1ccc(C2=NN3CN(N2)c2ccccc2OCCCOc2ccccc23)cc1
[A] > 100 µM (inactive)

* * *

system: MDA-MB-435; test: NCI tumour cell line growth inhibition, 48 h
Activity calls are given as the source filed them. Cut-off read from the data, not from the text of the source: active = GI50 up to about 1.1 µM and inactive = higher.
Your answer must be one of the following: 1.0 (active), 0.0 (inactive)

Past entries and their recorded results:
compound=C=CCNc1nc2c(N)ncnc2s1 label_value=0.0
compound=Cc1n[nH]c(=O)n1C1CCCC1 label_value=0.0
compound=C[C@]12CC[C@H](O)C[C@@H]1CC[C@@H]1[C@@H]2CC[C@]2(C)[C@@H](C3=CC(=O)OC3)CC[C@]12O label_value=0.0

// switching to the query compound
[Q] For O=C(c1ccccc1)c1ccc(N2C(=O)/C(=C/c3ccccc3S)N=C2c2ccccc2)c(N2C(=O)/C(=C/c3ccccc3S)N=C2c2ccccc2)c1 , which call appears in the assay record?
[A] 0.0

* * *

tested on: HT-29; experiment: NCI tumour cell line growth inhibition, 48 h
Activity calls are given as the source filed them. No stated cut-off is given here; in the data, active = GI50 up to about 1.1 µM and inactive = higher.
Measurement type: GI50

Look over these answered cases.
compound=CC(C)=CCC[C@@H](C)C1=CC(=O)C(C)=C(O)C1=O reading="7.16 µM (inactive)"
compound="O=C(CC(C(=O)c1cccs1)c1ccsc1)c1ccsc1 (stereo not given)" reading="36.6 µM (inactive)"
compound="O/N=C1/C(=C/c2ccc(Cl)cc2)CCCC1C(NO)c1ccc(Cl)cc1 (stereo not given)" reading="19.2 µM (inactive)"

For each of the compounds below, note its GI50.
1. COC(=O)CCC1(O)C=CC(=O)C=C1
2. COc1cc(/C=C2/C(=O)N/C(=N\C(C)=O)N2C)ccc1OC(C)=O
3. COC(=O)C(O)P(=O)(OC)OC (stereo not given)
4. C[n+]1ccc(/C2=C3\C=CC(=N3)/C(c3cc[n+](C)cc3)=c3/cc/c([nH]3)=C(\c3cc[n+](C)cc3)C3=N/C(=C(/c4cc[n+](C)cc4)C4C=CC2N4)C=C3)cc1
5. COC1=C2CC(C)CC(OC)[C@@H](OC(=O)CCN)[C@H](C)/C=C(\C)C(OC(N)=O)C(OC)/C=C\C=C(/C)C(=O)NC(=CC1=O)C2=O (stereo not given in full)
6. N=C(N)SCc1cc(Cl)cc(Cl)c1O
7. N#Cc1c(N)n(-c2nc3ccccc3s2)c(=O)c2cc([N+](=O)[O-])ccc12

[A]
36.7 µM (inactive)
> 100 µM (inactive)
> 100 µM (inactive)
51.9 µM (inactive)
0.465 µM (active)
16 µM (inactive)
3.5 µM (inactive)

* * *

tested on: SW-620; test: NCI tumour cell line growth inhibition, 48 h
Calls of active or inactive are those of the source. Rule as the data show it: active = GI50 up to about 1.1 µM and inactive = higher.
Your answer must be one of the following: label 1 = active, label 0 = inactive

compound="OCC1C(/C=C/c2ccoc2)ON2CCCC12 (stereo unspecified)" label_value="label 0"

// switching to the query compound
[Q] For COc1ccc2c(c1)[n+]([O-])c(-c1ccccc1Cl)c(N)[n+]2[O-] , which call appears in the assay record?
[A] label 0

* * *

test system: OVCAR-5; experiment: NCI tumour cell line growth inhibition, 48 h
Active and inactive are the calls of the source. No stated cut-off is given here; in the data, active = GI50 up to about 1.1 µM and inactive = higher.
Measurement type: GI50

Look over these answered cases.
compound="CC(=O)Nc1ncc2c(n1)-c1ccccc1OC2c1ccccc1 (stereo unspecified)" reading="> 100 µM (inactive)"
compound="N=C(N)C1CN(CC=O)C(=O)NC1=O (stereo unspecified)" reading="> 100 µM (inactive)"
compound="COC(=O)c1ccccc1CC1Cc2ccc3c(c2C1)CCC3 (stereo unspecified)" reading="29.5 µM (inactive)"
compound=O=C1Nc2ccccc2/C1=N/N=c1\cccc[nH]1 reading="51.5 µM (inactive)"
compound="CC1CN=C(Nc2ccc(F)cc2F)S1 (stereo unspecified)" reading="> 100 µM (inactive)"

For each of the compounds below, note its GI50.
1. COc1ccc(-c2c(C3=NCCCN3)nnn2-c2ccc([N+](=O)[O-])cc2)cc1
2. Cc1ccccc1-c1c(N)nc(N)nc1C(=O)Nc1nccs1
3. CCN/C(=N\Nc1ccc([N+](=O)[O-])cc1)P(=O)(OC(C)C)OC(C)C
4. C=C1C(=O)OC2C3C(=C)[C@@H](OC(C)=O)CC3C(C)=CC(OC(=O)C(C)(OC(C)=O)C(C)OC(C)=O)[C@@H]12 (stereo partly specified)
5. O=C1Nc2nnc(S)n2NC12c1ccccc1-c1ccccc12
6. CCN(CC)C(=S)SS(=O)(=O)c1ccc(C)cc1

[A]
["> 100 µM (inactive)", "> 100 µM (inactive)", "> 100 µM (inactive)", "21.9 µM (inactive)", "> 100 µM (inactive)", "> 100 µM (inactive)"]

For each of the compounds below, note its GI50.
1. CC(=O)N(C(C)=O)n1c(Cc2ccc(Cl)cc2)n[nH]c1=O
2. N#CC[N+]1(Cc2ccccn2)CCCC1.O=S(=O)([O-])c1ccccc1
3. Cc1cc(C)n(CN(Cn2nc(C)cc2C)c2ccc(N(Cn3nc(C)cc3C)Cn3nc(C)cc3C)cc2)n1
4. COC(=O)C12OC3CO[Si](C(C)C)(C(C)C)O[Si](C(C)C)(C(C)C)OC3C1Oc1nc(=O)ccn12 (stereo unspecified)
5. C=CCOc1ccc(C2(c3ccc(OCC=C)cc3)C(=O)Nc3ccccc32)cc1

[A]
1: > 100 µM (inactive); 2: > 100 µM (inactive); 3: 24.7 µM (inactive); 4: 15.2 µM (inactive); 5: > 10 µM (inactive)

* * *

tested on: MDA-MB-435; assay: NCI tumour cell line growth inhibition, 48 h
The source made the active and inactive calls. Rule as the data show it: active = GI50 up to about 1.1 µM and inactive = higher.
For each record, write down the corresponding GI50.

compound=CCN(CC)C(=S)SS(=O)(=O)c1ccc(C)cc1 subject_of_test=MDA-MB-435 reading="31.5 µM (inactive)"

For each of the compounds below, note its GI50.
1. N#CC[N+]1(Cc2ccccn2)CCCC1.O=S(=O)([O-])c1ccccc1
2. CN(CC(=O)O)Cc1c[nH]c2ccccc12
3. O=[N+]([O-])c1ccc2nc(-c3ccccn3)c(-c3ccccn3)nc2c1
4. O=P(O)(O)C(NCC(O)CN1CCOCC1)P(=O)(O)O (centres undefined)
5. COc1ccc(C=C2C(C)=NN(c3cccc(Cl)c3)C23C(Cl)C(=O)N3c2nc3ccccc3s2)cc1 (centres undefined)
6. CN1Cc2ccccc2/C=C\c2ccccc21
7. Nc1cc(N)cc(Cc2ccccc2)c1
8. C=C1C(=O)O[C@@H]2[C@@H]3O[C@@H](C[C@@H]13)[C@](C)(O)CC/C=C(\C)CCC[C@@H]2C

[A]
["> 100 µM (inactive)", "> 100 µM (inactive)", "> 100 µM (inactive)", "> 100 µM (inactive)", "16.5 µM (inactive)", "39.8 µM (inactive)", "> 100 µM (inactive)", "7.87 µM (inactive)"]

* * *

For each record, write down the corresponding GI50.
test system: SNB-19; assay: NCI tumour cell line growth inhibition, 48 h
Activity calls are given as the source filed them. Rule as the data show it: active = GI50 up to about 1.1 µM and inactive = higher.

molecule="CCOP(=O)(OCC)C(Nc1cccc(F)c1)c1ccccc1 (centres undefined)" subject_of_test=SNB-19 measurement_type=GI50 reading="> 100 µM (inactive)"
molecule="Clc1ccc(C2=CC(c3ccccc3)N3C(=N[C@H]4CCCC[C@@H]43)N2)cc1 (some centres undefined)" subject_of_test=SNB-19 measurement_type=GI50 reading="4.55 µM (inactive)"
molecule=CC(=O)N(C(C)=O)n1c(Cc2ccc(Cl)cc2)n[nH]c1=O subject_of_test=SNB-19 measurement_type=GI50 reading="> 100 µM (inactive)"

Turning now to a further molecule:
[Q] Request the reported GI50 associated with CN(C)/C(=N/C(=S)Nc1ccccc1)SCc1ccccc1
[A] 40.3 µM (inactive)

* * *

tested on: M14; assay: NCI tumour cell line growth inhibition, 48 h
Activity calls are given as the source filed them. Cut-off read from the data, not from the text of the source: active = GI50 up to about 1.1 µM and inactive = higher.
Your answer must be one of the following: active, inactive

Past entries and their recorded results:
molecule=OCCCNCc1ccccn1 label_value=inactive
molecule="c1ccc2c(c1)ncn2C1CCCCO1 (stereo not given)" label_value=inactive
molecule=Cc1c(N2C(=O)/C(=C/C=C/c3ccccc3)N=C2c2ccccc2)c(=O)n(-c2ccccc2)n1C label_value=inactive
molecule=CC(=O)OCCN1c2ccccc2Sc2cnccc21 label_value=inactive
molecule=CCOc1ccccc1/N=N/c1c(-c2ccccc2)nn(C(=O)CC(=O)Nc2cccc(C)c2)c1-c1ccccc1 label_value=inactive

[Q] For COc1ccc(NC(=O)Oc2cc(C)c3ccc(=O)cc-3o2)c(OC)c1.COc1ccc(NC(=O)Oc2ccc3c(C)cc(=O)oc3c2)c(OC)c1 , which call appears in the assay record?
[A] inactive

[Q] For CSc1ccc(C2OC(=O)c3ccccc32)c2ccccc12 (stereo not given) , which call appears in the assay record?
[A] inactive

[Q] For CC(C)(Oc1ccc(/C=C/C(=O)c2ccccc2)cc1)C(=O)Nc1c(Cl)cccc1Cl , which call appears in the assay record?
[A] inactive

[Q] For O=C1C(Cl)=CC2(C=C1Cl)CCNC1=C2C(=O)c2nc[nH]c2C1=O , which call appears in the assay record?
[A] inactive

[Q] For Oc1cc(Cl)ncn1 , which call appears in the assay record?
[A] inactive

[Q] For COC(=O)c1c2c(cc3c1CC1(Cc4cc5c(cc4C1)CCCC5)C3)CCCC2 , which call appears in the assay record?
[A] inactive

[Q] For CN(C)c1ccc(C2CC(c3ccc4ccccc4c3O)=NN2c2ccc([N+](=O)[O-])cc2[N+](=O)[O-])cc1 (stereo not given) , which call appears in the assay record?
[A] inactive

[Q] For COc1ccc([C@@]23Oc4cc(OC)cc(OC)c4[C@]2(O)[C@H](O)[C@H](C(N)=O)[C@H]3c2ccccc2)cc1 [DIDESMETHYLROCAGLAMIDE] , which call appears in the assay record?
[A] active
